Field: IC50. System: DGKα (Homo sapiens, UniProt P23743). Provenance: assorted publications.

Solved entries (count: 8):
CC[C@H]1CN(C(C)c2nn(CC)cc2C)[C@H](CC)CN1c1cc(=O)n(C)c2cn(CC#N)nc12 (stereo partly shown) :: > 10 µM
CCC(O)(c1nnc(-c2ccc3c(c2)N(Cc2ccc(-c4noc(C5CC5)n4)cc2)C(=O)[C@@H](N)CS3(=O)=O)o1)C(F)(F)F (stereo partly shown) :: > 19.8 µM
CCn1c(CC#N)nc2c(N3C[C@@H](C)N(C(C)c4ccc(C)c(C)n4)C[C@@H]3C)nc(=O)n(C)c21 (stereo partly shown) :: > 150 µM
CC[C@H]1CN(C(C)c2ccc(Cl)cc2C(F)(F)F)[C@H](CC)CN1c1cc(=O)n(C)c2cn(CC#N)nc12 (stereo partly shown) :: > 10 µM
CC(C)(C#N)c1nnc(-c2ccc3c(c2)N(Cc2ccc(-c4cnc(C(F)(F)F)nc4)cc2)C(=O)[C@@H](N)CS3(=O)=O)o1 :: > 62.5 µM
CCn1c(CC#N)nc2c(N3C[C@@H](C)N(C(C)c4cccc(N5CCOCC5)c4)C[C@@H]3C)nc(=O)n(C)c21 (stereo partly shown) :: > 150 µM
[2H]C([2H])([2H])n1c(=O)cc(N2C[C@@H](CC)N(C(C)c3ccc(F)cc3C(F)(F)F)C[C@@H]2CC)c2nn(CC#N)cc21 (stereo partly shown) :: > 150 µM
CCn1c(CC#N)nc2c(N3C[C@@H](C)N(C(C)c4ccc5c(c4)OC(C)(C)CO5)C[C@@H]3C)nc(=O)n(CC)c21 (stereo partly shown) :: > 150 µM

Query string: Param item = "CC1(Nc2nnc(-c3ccc4c(c3)N(Cc3ccc(-c5noc(C(F)(F)F)n5)cc3)C(=O)[C@@H](N)CS4(=O)=O)o2)CC(F)(F)C1" ; retrieve measured IC50.
Result string: > 62.5 µM

Query string: Then what about the compound "C[C@@H]1CN(c2c(Cl)c(=O)n(C)c3cn(CC#N)nc23)[C@@H](C)CN1[C@@H](C)c1ccc2nccnc2c1" ?
Result string: > 10 µM
